assayed.system: GOPC, Q9HD26
protocol.description: holdup assay
Parameters: key: below the threshold = too weak to quantify, mostly under pKd 3.1 to 4
condition.set: plain residues with an end cap or a label only (N-terminal biotin on a linker: ttds)
reported.endpoint: pKd

Exam item: Entry under review: EVVHTPETSV [SLC16A3, O15427] . Reported pKd?
Marked response: below the threshold

Exam item: Try this binder next: SSLQSLETSV [ATP2B4, P23634]
Marked response: below the threshold

Exam item: Try this binder next: SKPTRRETEV [HPV35-E6, P27228]
Marked response: below the threshold
